PROCEDURE_TEXT: Half life in human hepatocytes
Format: ADME, cell-based, Hepatocyte
MEASURED_ATTRIBUTE: half-life (min)
Give the value, in units of min, as a plain number.

query: Provide measured half-life value, entry: Cc1ccc2cccc(NC(=O)c3ccc(OC(C)C)cc3)c2n1
result: 45

====

PROCEDURE_TEXT: Half life in mouse microsomes
Format: ADME, Microsome
MEASURED_ATTRIBUTE: half-life
Express your answer as a number followed by its unit.

query: Please give measured half-life of the following entry: Cc1ccc2cccc(NC(=O)c3ccc(OC(C)C)cc3)c2n1
result: 2 min

====

PROCEDURE_TEXT: Half life in human microsomes
Type: ADME, Microsome
MEASURED_ATTRIBUTE: half-life (min)
Provide the reading as a plain figure in min.

query: Consider the compound Cc1ccc2cccc(NC(=O)c3ccc(OC(C)C)cc3)c2n1 and give its recorded half-life.
result: 15

====

PROCEDURE_TEXT: Half life in mouse plasma
Assay type: ADME, cell-free
MEASURED_ATTRIBUTE: half-life (h)
Output spec: scalar in h, unitless text.

query: Identify measured half-life associated with Cc1ccc2cccc(NC(=O)c3ccc(OC(C)C)cc3)c2n1
result: 2.33

====

PROCEDURE_TEXT: Half life in mouse hepatocytes
Format: ADME, cell-based, Hepatocyte
MEASURED_ATTRIBUTE: half-life (min)
Please reply with the bare figure in min and do not write the unit itself.

query: Annotate the molecule Cc1ccc2cccc(NC(=O)c3ccc(OC(C)C)cc3)c2n1 with its measured half-life.
result: 2

====

PROCEDURE_TEXT: Oral bioavailability in mouse at 50 mg/kg
Type: ADME, organism-based
EXPERIMENTAL_SETUP: in vivo
MEASURED_ATTRIBUTE: bioavailability (%)
The reply should contain only the number, in %.

query: Report measured bioavailability; entry is Cc1ccc2cccc(NC(=O)c3ccc(OC(C)C)cc3)c2n1
result: 37

====

PROCEDURE_TEXT: Half life in human plasma
Type: ADME, cell-free
MEASURED_ATTRIBUTE: half-life

query: Answer with reported half-life of Cc1ccc2cccc(NC(=O)c3ccc(OC(C)C)cc3)c2n1
result: > 5 h
